# studySystem: mouse TrkB extracellular domain fused to the transmembrane and cytoplasmic domains of human TrkB, expressed … (mouse; human, UniProt Q16620 431-822, limits assumed)
# Sequence (Q16620 other isoform, or with tags, fused parts or gaps limits assumed, form in doubt): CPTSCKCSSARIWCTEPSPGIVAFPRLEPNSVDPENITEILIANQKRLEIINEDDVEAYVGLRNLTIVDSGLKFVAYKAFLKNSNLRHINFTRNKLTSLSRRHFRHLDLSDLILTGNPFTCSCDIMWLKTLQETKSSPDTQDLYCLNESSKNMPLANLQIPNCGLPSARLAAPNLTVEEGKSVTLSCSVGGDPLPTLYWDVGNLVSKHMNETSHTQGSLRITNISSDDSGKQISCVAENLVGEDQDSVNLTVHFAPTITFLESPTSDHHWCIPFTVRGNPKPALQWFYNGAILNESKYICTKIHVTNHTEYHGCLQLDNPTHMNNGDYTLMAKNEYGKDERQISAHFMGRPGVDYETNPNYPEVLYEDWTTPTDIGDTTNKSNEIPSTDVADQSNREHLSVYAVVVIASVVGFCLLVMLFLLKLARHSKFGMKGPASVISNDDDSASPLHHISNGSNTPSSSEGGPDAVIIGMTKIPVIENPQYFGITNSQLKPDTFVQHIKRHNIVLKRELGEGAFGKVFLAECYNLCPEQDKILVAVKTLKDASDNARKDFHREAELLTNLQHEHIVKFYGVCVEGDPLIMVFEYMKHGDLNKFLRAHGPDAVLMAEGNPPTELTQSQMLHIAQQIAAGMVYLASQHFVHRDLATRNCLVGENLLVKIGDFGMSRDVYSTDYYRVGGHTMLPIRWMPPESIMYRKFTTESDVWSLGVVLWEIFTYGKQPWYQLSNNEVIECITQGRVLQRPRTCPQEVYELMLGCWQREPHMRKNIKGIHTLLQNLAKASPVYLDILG
# experimentalProtocol: cell-based or functional assay
I'd be grateful if you could share measured EC50 (M), SRE-luciferase, 100 pM BDNF for these entries.
Answer format: numeric, M implied, no suffix.

Short answer for H1M8037C (antibody, mouse IgG1, kappa, V domains shown, captured by anti-mFc in SPR; also called Comparator; comparator anti-TrkB monoclonal antibody) VH: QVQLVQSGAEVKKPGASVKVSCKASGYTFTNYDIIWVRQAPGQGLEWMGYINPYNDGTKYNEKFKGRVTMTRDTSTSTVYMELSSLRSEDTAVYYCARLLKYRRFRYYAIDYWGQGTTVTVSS VL: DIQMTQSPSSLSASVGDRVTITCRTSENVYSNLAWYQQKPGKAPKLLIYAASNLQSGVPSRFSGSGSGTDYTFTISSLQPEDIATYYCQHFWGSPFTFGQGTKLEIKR : EC50 (M), SRE-luciferase, 100 pM BDNF was 4.2e-11

Short answer for M2aM14179N (antibody, mouse IgG2a, kappa, V domains shown, Anti-mouse TrkB antibody from hybridoma, mouse IgG2a Fc; also called surrogate anti-mouse TrkB antibody) VH: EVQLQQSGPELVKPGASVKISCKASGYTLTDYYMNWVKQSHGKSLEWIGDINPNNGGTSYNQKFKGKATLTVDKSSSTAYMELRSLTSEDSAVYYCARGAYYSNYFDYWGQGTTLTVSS VL: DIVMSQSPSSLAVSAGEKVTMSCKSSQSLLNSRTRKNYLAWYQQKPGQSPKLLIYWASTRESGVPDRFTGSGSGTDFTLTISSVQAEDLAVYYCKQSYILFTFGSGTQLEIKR : EC50 (M), SRE-luciferase, 100 pM BDNF was 2.1e-11

Short answer for M2aM14173N (antibody, mouse IgG2a, kappa, V domains shown, Anti-mouse TrkB antibody from hybridoma, mouse IgG2a Fc; also called surrogate anti-mouse TrkB antibody) VH: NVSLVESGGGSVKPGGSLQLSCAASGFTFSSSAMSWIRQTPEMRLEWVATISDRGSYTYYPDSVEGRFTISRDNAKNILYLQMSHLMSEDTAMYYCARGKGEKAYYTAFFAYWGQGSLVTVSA VL: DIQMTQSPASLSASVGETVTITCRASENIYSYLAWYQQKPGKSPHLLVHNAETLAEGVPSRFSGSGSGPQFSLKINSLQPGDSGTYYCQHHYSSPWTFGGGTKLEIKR : EC50 (M), SRE-luciferase, 100 pM BDNF was 1.7e-11

The measured values listed here are drawn from patent US20190161551A1.
